Measured values drawn from paper PMC5601358 for this set.

Overview of recorded log10 of kon for various compounds
- targetEntity: human adenosine A3 receptor (Homo sapiens, UniProt P0DMS8)
- Sequence (P0DMS8 1-318): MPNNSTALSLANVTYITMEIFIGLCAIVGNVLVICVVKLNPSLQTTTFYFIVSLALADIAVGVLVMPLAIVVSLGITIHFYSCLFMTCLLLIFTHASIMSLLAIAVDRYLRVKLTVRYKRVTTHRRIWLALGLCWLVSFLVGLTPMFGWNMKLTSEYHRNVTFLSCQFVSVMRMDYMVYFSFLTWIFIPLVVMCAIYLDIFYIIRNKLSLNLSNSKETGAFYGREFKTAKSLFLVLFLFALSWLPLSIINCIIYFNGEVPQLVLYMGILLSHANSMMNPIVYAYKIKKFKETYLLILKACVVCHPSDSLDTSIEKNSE
- assayMethodText: Radioligand competition association assay with [3H]34
- Assay type: binding
Transform log10 | Measure kon | Unit M⁻¹ s⁻¹

>  <smilesData>
CCCCCCCn1c(=O)c2c(nc3cc(OC)ccn32)n(Cc2ccccc2)c1=O

>  <log10 of kon>
5.62

$$$$
>  <smilesData>
COc1ccc(Cn2c(=O)n(CC3CC3)c(=O)c3c2nc2cc(OC)ccn23)cc1

>  <log10 of kon>
5.68

$$$$
>  <smilesData>
COc1ccn2c(c1)nc1c2c(=O)[nH]c(=O)n1Cc1ccccc1

>  <log10 of kon>
5.72

$$$$
>  <smilesData>
CCCCCn1c(=O)c2c(nc3cc(OC)ccn32)n(Cc2ccccc2)c1=O

>  <log10 of kon>
6.04

$$$$
>  <smilesData>
CCCn1c(=O)c2c(nc3cc(OC)ccn32)n(Cc2ccccc2)c1=O

>  <log10 of kon>
5.93

$$$$
>  <smilesData>
COc1ccn2c(c1)nc1c2c(=O)n(CC2CC2)c(=O)n1Cc1ccc(Cl)c(Cl)c1

>  <log10 of kon>
5.00

$$$$
>  <smilesData>
CCCCCCn1c(=O)c2c(nc3cc(OC)ccn32)n(Cc2ccccc2)c1=O

>  <log10 of kon>
5.36

$$$$

--- query ---
Ask: Form field: reported log10 of kon of COc1ccn2c(c1)nc1c2c(=O)n(CC2CC2)c(=O)n1Cc1cccc(Cl)c1
Reply: 5.91
